test system: RXF 393 renal; assay: NCI tumour cell line growth inhibition, 48 h
Recorded GI50 for the following compounds

Below are worked cases with known answers.
smi	GI50
Cc1ncc(C(=O)Nc2ccc(CN3CCN(C)CC3)c(C(F)(F)F)c2)cc1C#Cc1c(N)ncc2ccc(C#N)cc12	327 nM
CCN1CCC(C(=O)Nc2n[nH]c3nnc(-c4cccc(F)c4F)cc23)CC1	403 nM
C#Cc1cccc(NC(=O)Nc2ccccc2NC(=O)CCl)c1	12100 nM
CCc1nc(N)nc(N)c1-c1ccc(Cl)cc1	22600 nM
CCN1CCN(C(=O)[C@]23CC[C@@H](C)[C@H](C)[C@@H]2C2=CC[C@@H]4[C@@]5(C)C/C(=C/c6cccnc6)C(=O)C(C)(C)[C@@H]5CC[C@@]4(C)[C@]2(C)CC3)CC1	1450 nM

query: For "O=C1CCC/C=C\C[C@H]2C=C(Cl)C(=O)/C2=C/C[C@H](CCCCC(F)(F)F)OC(=O)CCC/C=C\C[C@H]2C=C(Cl)C(=O)/C2=C/C[C@H](CCCCC(F)(F)F)O1" , what is its reported GI50?
result: 134 nM

query: Again, but for "COc1ccc(NC(=O)c2ccc(NC3=C(Cl)C(=O)N(Cc4ccccc4)C3=O)cc2)cc1"
result: 3210 nM

query: Lookup "COc1ccc(CN2CCc3c(Cl)nc(N)nc3C2=O)c(OC)c1"
result: 22700 nM
